B1: HDV Ribozyme (parent)
chain: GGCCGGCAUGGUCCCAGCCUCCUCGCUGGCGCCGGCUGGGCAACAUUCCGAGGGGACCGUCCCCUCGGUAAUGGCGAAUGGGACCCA

# Variants of: B1
# assay.explanation: self-cleavage, relative activity (ratio to wild type); higher = more cleavage; co-transcriptional
# label = met if self-cleavage >= 0.2 else not met

INSERT INTO assay_data (var, label) VALUES
  ('G11U C64U', 'met'),
  ('G10C G54C', 'met'),
  ('C13A C18G', 'not met'),
  ('C30A C57G', 'met'),
  ('G10A C21G', 'not met');

Req: I'd appreciate it if you could say whether G68A A87U has self-cleavage at least equal to 0.2.
Resp: met

Req: State whether the measured self-cleavage reaches 0.2, counting equality as reaching it, for G35A C84U
Resp: met

Req: Is reported self-cleavage greater than or equal to 0.2 here: G31U C33G
Resp: not met

Req: Record C21U G35C ; criterion: self-cleavage no lower than 0.2. Met?
Resp: met

Req: Could you tell me if the measured self-cleavage of C21A C58U reaches 0.2 or more?
Resp: not met

Req: Is self-cleavage at least 0.2? Consider U69C C75A
Resp: not met
